Ref: ChEMBL document CHEMBL4406804

Below, each entry is listed with its recorded IC50.
target: Glucocorticoid receptor (Homo sapiens, UniProt P04150); assay: Antagonist activity at human glucocorticoid receptor expressed in CHO-K1 cells harboring firefly luciferase gene after 20 hrs by One-Glo luciferase reporter gene assay; assay type: cell-based
Sequence (P04150 whole entry): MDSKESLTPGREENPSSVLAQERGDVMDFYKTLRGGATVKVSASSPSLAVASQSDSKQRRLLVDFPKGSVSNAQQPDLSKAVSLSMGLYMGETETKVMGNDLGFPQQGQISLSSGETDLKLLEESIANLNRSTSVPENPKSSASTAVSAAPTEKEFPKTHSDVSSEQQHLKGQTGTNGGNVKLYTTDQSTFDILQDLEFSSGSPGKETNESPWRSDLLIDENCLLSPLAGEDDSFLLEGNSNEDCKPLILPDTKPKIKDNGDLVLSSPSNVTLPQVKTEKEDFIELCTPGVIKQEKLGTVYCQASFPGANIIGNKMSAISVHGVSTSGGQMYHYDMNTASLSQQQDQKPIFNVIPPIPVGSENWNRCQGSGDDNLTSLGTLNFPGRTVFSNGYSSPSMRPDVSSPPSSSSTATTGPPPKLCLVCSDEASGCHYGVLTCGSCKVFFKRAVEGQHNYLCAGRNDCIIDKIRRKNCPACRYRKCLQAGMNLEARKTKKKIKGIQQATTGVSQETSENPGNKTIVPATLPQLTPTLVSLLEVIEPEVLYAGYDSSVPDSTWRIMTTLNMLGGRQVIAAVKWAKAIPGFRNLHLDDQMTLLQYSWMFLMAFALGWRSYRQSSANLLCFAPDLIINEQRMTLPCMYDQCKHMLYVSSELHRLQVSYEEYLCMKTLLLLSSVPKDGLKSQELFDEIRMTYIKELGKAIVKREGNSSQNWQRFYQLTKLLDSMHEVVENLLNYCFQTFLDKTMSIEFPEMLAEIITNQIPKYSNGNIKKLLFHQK
Please state the figure in nM; there is no need to write the unit.

CN1CCN(c2ccc([C@H]3C[C@@]4(C)[C@@H](CC[C@@]4(O)C#CC(C)(C)C)[C@@H]4CCC5=CC(=O)CC[C@@H]5[C@H]43)cc2)CC1: 35.8

Turning to the following molecule.
**Query** For the molecule CN(C)c1ccc([C@H]2C[C@@]3(C)[C@@H](CC[C@@]3(O)C#CC(C)(C)C)[C@@H]3CCC4=CC(=O)CC[C@]4(C)[C@H]32)cc1 , give its reported IC50.
**Result** 33.6

====

target: Glucocorticoid receptor (Homo sapiens, UniProt P04150); assay: Antagonist activity at human glucocorticoid receptor expressed in CHO-K1 cells harboring firefly luciferase gene after 20 hrs by One-Glo luciferase reporter gene assay; format: cell-based
assay.metric: IC50 (nM)
Please state the figure in nM; there is no need to write the unit.

Before answering, review these 2 worked examples.
CC#C[C@]1(O)CC[C@H]2[C@@H]3CCC4=CC(=O)CC[C@]4(C)[C@H]3[C@@H](c3ccc(N4CCCC4)cc3)C[C@@]21C: 57.9
COCC#C[C@]1(O)CC[C@H]2[C@@H]3CCC4=CC(=O)CC[C@]4(C)[C@H]3[C@@H](c3ccc(N(C)C)cc3)C[C@@]21C: 116

**Query** For the compound CC#C[C@]1(O)CC[C@H]2[C@@H]3CCC4=CC(=O)CC[C@]4(C)[C@H]3[C@@H](c3ccc(-n4cccc4)cc3)C[C@@]21C , give its reported IC50.
**Result** 52.2

====

biological target: Cytochrome P450 3A4 (Homo sapiens, UniProt P08684); test: Inhibition of CYP3A4 (unknown origin) using midazolam as substrate; assay type: ADME
Sequence (P08684 whole entry): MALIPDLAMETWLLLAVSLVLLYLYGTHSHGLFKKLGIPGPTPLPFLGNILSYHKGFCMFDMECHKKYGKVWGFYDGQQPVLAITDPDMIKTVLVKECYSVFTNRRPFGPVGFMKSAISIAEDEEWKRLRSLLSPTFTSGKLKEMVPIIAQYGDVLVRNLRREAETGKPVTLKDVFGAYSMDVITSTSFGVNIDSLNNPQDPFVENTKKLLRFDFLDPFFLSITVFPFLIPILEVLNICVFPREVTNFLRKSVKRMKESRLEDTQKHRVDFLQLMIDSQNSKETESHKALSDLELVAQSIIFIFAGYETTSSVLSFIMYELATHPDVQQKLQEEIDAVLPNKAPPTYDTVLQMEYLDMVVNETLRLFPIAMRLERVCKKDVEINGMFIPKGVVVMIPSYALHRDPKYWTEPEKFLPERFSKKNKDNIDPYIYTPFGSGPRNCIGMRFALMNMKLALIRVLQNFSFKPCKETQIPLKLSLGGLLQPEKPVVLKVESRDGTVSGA
pIC50: −log10 of the molar value.
assay.metric: pIC50

**Query** For the molecule CC#C[C@]1(O)CC[C@H]2[C@@H]3CCC4=CC(=O)CC[C@]4(C)[C@H]3[C@@H](c3ccc(N(C)C)cc3)C[C@@]21C , give its reported pIC50.
**Result** < 5.00

====

molecular target: Androgen receptor (Homo sapiens, UniProt P10275); assay: Antagonist activity at human androgen receptor in human LNCAP cells harboring firefly luciferase gene after 20 hrs by One-Glo luciferase reporter gene assay; assay type: cell-based
Sequence (P10275 whole entry): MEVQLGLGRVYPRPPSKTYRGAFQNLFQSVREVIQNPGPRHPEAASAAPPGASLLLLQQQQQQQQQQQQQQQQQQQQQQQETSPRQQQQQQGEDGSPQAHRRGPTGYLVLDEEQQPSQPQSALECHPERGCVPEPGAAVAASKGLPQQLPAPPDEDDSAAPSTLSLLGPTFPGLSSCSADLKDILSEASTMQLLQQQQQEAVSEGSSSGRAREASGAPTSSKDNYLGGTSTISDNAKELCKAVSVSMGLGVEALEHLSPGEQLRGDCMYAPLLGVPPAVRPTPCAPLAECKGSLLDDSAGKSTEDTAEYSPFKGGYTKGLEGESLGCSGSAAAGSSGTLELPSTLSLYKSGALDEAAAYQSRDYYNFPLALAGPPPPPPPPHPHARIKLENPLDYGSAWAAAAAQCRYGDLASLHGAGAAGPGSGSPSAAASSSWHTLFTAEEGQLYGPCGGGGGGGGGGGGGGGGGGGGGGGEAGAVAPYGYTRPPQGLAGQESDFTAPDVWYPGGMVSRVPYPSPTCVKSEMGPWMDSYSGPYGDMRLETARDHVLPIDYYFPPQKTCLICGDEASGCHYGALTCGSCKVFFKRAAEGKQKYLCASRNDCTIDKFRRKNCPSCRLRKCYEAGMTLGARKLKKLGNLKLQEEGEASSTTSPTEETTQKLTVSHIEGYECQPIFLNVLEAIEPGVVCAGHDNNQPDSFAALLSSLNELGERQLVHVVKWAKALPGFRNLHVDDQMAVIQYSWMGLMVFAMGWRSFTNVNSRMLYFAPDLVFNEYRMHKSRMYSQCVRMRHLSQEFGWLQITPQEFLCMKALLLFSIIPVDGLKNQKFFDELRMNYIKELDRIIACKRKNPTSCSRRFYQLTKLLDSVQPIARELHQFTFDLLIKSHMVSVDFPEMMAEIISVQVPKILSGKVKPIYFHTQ
assay.metric: IC50 (µM)
Please state the figure in µM; there is no need to write the unit.

Before answering, review these 2 worked examples.
CC#C[C@]1(O)CC[C@H]2[C@@H]3CCC4=CC(=O)CC[C@]4(C)[C@H]3[C@@H](c3ccc(N4CCCC4)cc3)C[C@@]21C: 3.15
CC#C[C@]1(O)CC[C@H]2[C@@H]3CCC4=CC(=O)CC[C@]4(C)[C@H]3[C@@H](c3ccc(N(C)C)cc3)C[C@@]21C: 0.912

Turning to the following compound.
**Query** For the compound CC#C[C@]1(O)CC[C@H]2[C@@H]3CCC4=CC(=O)CC[C@]4(C)[C@H]3[C@@H](c3ccc(N(C)C(C)C)cc3)C[C@@]21C , give its reported IC50.
**Result** 2.25

====

assay: Volume of distribution at steady state in rat at 0.5 mg/kg, iv; type: ADME, organism-based; conditions: in vivo, read-out: Vdss
assay.metric: Vd (L/kg)
Please state the figure in L/kg; there is no need to write the unit.

**Query** For the compound CC#C[C@]1(O)CC[C@H]2[C@@H]3CCC4=CC(=O)CC[C@]4(C)[C@H]3[C@@H](c3ccc(N(C)C)cc3)C[C@@]21C , give its reported Vd.
**Result** 4.7
